# maps each entry to its fluorescence slope change
# testedOn: ATP-dependent translocase ABCB1 (Homo sapiens)
# assayRemarks: MDR1 (ABCB1) efflux transporter inhibition, cell-based (AID 377)
# conditionDescription: MDR1-expressing cells, fluorescent substrate accumulation slope; hits give high values; concentration not given here
Inconclusive results are not listed.
Reply with just the number (in %).

compound: C[C@@H]1CCC2[C@H](C)C3CC[C@@]4(O)[C@@H]5CC(=O)[C@H]6CC(=O)CC[C@]6(C)C5C[C@H]4[C@@H]3CN2C1 (some centres undefined)
testedOn: ATP-dependent translocase ABCB1 (Homo sapiens)
fluorescence slope change [%]: 16.8

compound: C=C(C)[C@H]1Cc2c(ccc3c2O[C@@H]2COc4cc(OC)c(OC)cc4[C@@H]2C3=O)O1
testedOn: ATP-dependent translocase ABCB1 (Homo sapiens)
fluorescence slope change [%]: 63.7

compound: CCN1C[C@]2(COC)CC[C@H](O)[C@@]34C5C[C@H]6C(OC)C5[C@](O)(C[C@H]6OC)C(O)(C(OC)C23)[C@@H]14 (some centres undefined)
testedOn: ATP-dependent translocase ABCB1 (Homo sapiens)
fluorescence slope change [%]: -9.9

compound: CN1C[C@H](CNC(=O)OCc2ccccc2)C[C@@H]2c3cccc4c3c(cn4C)C[C@H]21
testedOn: ATP-dependent translocase ABCB1 (Homo sapiens)
fluorescence slope change [%]: 18.1

compound: CC(C)N(CCC(C(N)=O)(c1ccccc1)c1ccccn1)C(C)C (centres undefined)
testedOn: ATP-dependent translocase ABCB1 (Homo sapiens)
fluorescence slope change [%]: 52.1

compound: COc1ccc(CN2CCNCC2)c(OC)c1OC
testedOn: ATP-dependent translocase ABCB1 (Homo sapiens)
fluorescence slope change [%]: 2.5

compound: COc1ccc2c(c1OC)CN1CCc3cc4c(cc3C1C2)OCO4 (centres undefined)
testedOn: ATP-dependent translocase ABCB1 (Homo sapiens)
fluorescence slope change [%]: 24.8

compound: O=C(CCCN1CCC(n2c(=O)[nH]c3ccccc32)CC1)c1ccc(F)cc1
testedOn: ATP-dependent translocase ABCB1 (Homo sapiens)
fluorescence slope change [%]: 57.5

Input: Query: fluorescence slope change; subject: C=C[C@]12CN(C)C3C4COC(CC41)[C@]1(C(=O)Nc4ccccc41)[C@@H]32 (some centres undefined)
Output: 13.5

Input: Okay, and COC(C)C(O)(C(=O)OCC1=CCN2CC[C@H](O)[C@@H]12)C(C)C (some centres undefined) ?
Output: 29

Input: Note, next up: CCN1C[C@]2(COC)CC[C@H](OC)[C@]34C5C[C@@H]6[C@@H](OC)CC7(OCO[C@]7([C@H]13)[C@@H](O)C24)C5[C@H]6OC (some centres undefined)
Output: 13

Input: C[C@]12N[C@H](Cc3ccccc31)c1ccccc12 ?
Output: 55.9

Input: Then this compound: CC(C)C[C@H]1C(=O)N2CCC[C@H]2[C@]2(O)O[C@](NC(=O)[C@@H]3C=C4c5cccc6[nH]cc(c56)C[C@H]4N(C)C3)(C(C)C)C(=O)N12
Output: 95.9

Input: Cool, now CCN(CC)C(=O)N[C@H]1C=C2c3cccc4[nH]cc(c34)C[C@H]2N(C)C1
Output: 136

Input: Follow-up entry: COc1ccc2c(c1)[nH]c1c(C)nccc12
Output: 59.3

Input: Another compound to check: Clc1ccc(COC(Cn2ccnc2)c2ccc(Cl)cc2Cl)cc1 (centres undefined)
Output: 66.2

Input: Next record, please: Oc1ccc2c3c1O[C@H]1[C@@H](O)CC[C@@]4(O)[C@@H](C2)N(CC2CCC2)CC[C@]314
Output: 211

Input: Again, but for COc1ccc2[nH]c3c(c2c1)CCN=C3C
Output: 83.4

Input: # iterate: NCC1(CC(=O)O)CCCCC1
Output: 23.2
